Assay: reversal of MRP1-mediated doxorubicin resistance, pilot screen, H69AR cells, doxorubicin co-treatment (AID 601)
Conditions: H69AR cells + 2 uM doxorubicin, CellTiter-Glo, 72 h; measured here: viability with 2 uM doxorubicin; at 10 µM; stronger effect = lower value
// reported viability per item

{"molecule": "CCOC(=O)c1cc2c(=O)n3cccc(C)c3nc2n(CCOC)c1=NC(=O)c1ccncc1", "viability [%]": 92.6}
{"molecule": "CC1(C)CC(=O)C=C(NC2CCS(=O)(=O)C2)C1 (configuration not stated)", "viability [%]": 92.2}
{"molecule": "CN(CC(=O)Nc1ccccc1Cl)C(=O)COC(=O)CNC(=O)c1ccc(Br)o1", "viability [%]": 89.5}
{"molecule": "COc1cc(NC(=O)Cc2ccccc2OC)cc(OC)c1", "viability [%]": 92}
{"molecule": "O=C1OC(N2CCN(c3ccccn3)CC2)c2ccccc21 (configuration not stated)", "viability [%]": 89.4}
{"molecule": "O=c1c2[nH]c3ccc(Cl)cc3c2ncn1Cc1ccccn1", "viability [%]": 87.9}
{"molecule": "CCOC(=O)C1=C(C)NC(=O)C(C#N)C1c1ccco1 (configuration not stated)", "viability [%]": 90.6}

Source: PubChem BioAssay
